test-details: Prolonged piperidine treatment at 60°C of VKDRYI peptide resin (aspartimide formation)
Type: physicochemical
condition-label: VKDRYI; 20% piperidine in DMF at 60°C, 200 minutes
value-type: D/L-Asu [%] (%)

In the examples that follow, each entry is paired with its recorded D/L-Asu [%].
In [3]: df
Out[3]:
                                   molecule  experimental_result
0  CCCC(CCC)(CCC)OC(=O)C[C@H](NC(=O)OCC1c2ccccc2-c2ccccc21)C(=O)O                  7.1
1  CCC(CC)(CC)OC(=O)C[C@H](NC(=O)OCC1c2ccccc2-c2ccccc21)C(=O)O                  7.8
2  CC(C)(C)OC(=O)C[C@H](NC(=O)OCC1c2ccccc2-c2ccccc21)C(=O)O [tBu, Fmoc-Asp(OtBu)-OH, reference compound]                 28.7

[P] CCCCC(CCCC)(CCCC)OC(=O)C[C@H](NC(=O)OCC1c2ccccc2-c2ccccc21)C(=O)O
[Q] CCC(C)(CC)OC(=O)C[C@H](NC(=O)OCC1c2ccccc2-c2ccccc21)C(=O)O [Mpe, Fmoc-Asp(OMpe)-OH, reference compound]
Would you kindly point out which of P and Q has the smaller D/L-Asu [%] figure? Could you answer with the label of the item you picked?
P

----------
test-details: Prolonged piperidine treatment of VKDGYI peptide resin (aspartimide formation, Asp-Gly motif)
condition-label: VKDGYI; 20 % piperidine in dimethylformamide, 18 hours; aspartimide
value-type: Asu [%] (%)

In the examples that follow, each entry is paired with its recorded Asu [%].
>>> print(df.to_string())
                                   compound  experimental_result
0  CCC(C)(CC)OC(=O)C[C@H](NC(=O)OCC1c2ccccc2-c2ccccc21)C(=O)O [Mpe, Fmoc-Asp(OMpe)-OH, reference compound]                  6.7
1  CCC(CC)(CC)OC(=O)C[C@H](NC(=O)OCC1c2ccccc2-c2ccccc21)C(=O)O                  4.1

[P] CCCC(CCC)(CCC)OC(=O)C[C@H](NC(=O)OCC1c2ccccc2-c2ccccc21)C(=O)O
[Q] CC(C)(C)OC(=O)C[C@H](NC(=O)OCC1c2ccccc2-c2ccccc21)C(=O)O [tBu, Fmoc-Asp(OtBu)-OH, reference compound]
Endpoint returns the identifier whose Asu [%] is numerically larger, either P or Q . Could you answer with the label of the item you picked?
Q
(Q: 6.4%, P: 2.9%)

----------
test-details: Prolonged treatment of VKDGYI peptide resin with 1 M Oxyma Pure and 20 % piperidine (aspartimide formation)
Format: physicochemical
condition-label: VKDGYI; Oxyma Pure +, 18 hours
value-type: piperidides [%] (%)

In the examples that follow, each entry is paired with its recorded piperidides [%].
>>> df
                                   compound  experimental_result
0  CCCC(CCC)(CCC)OC(=O)C[C@H](NC(=O)OCC1c2ccccc2-c2ccccc21)C(=O)O                  3.3
1  CCC(C)(CC)OC(=O)C[C@H](NC(=O)OCC1c2ccccc2-c2ccccc21)C(=O)O [Mpe, Fmoc-Asp(OMpe)-OH, reference compound]                 12.0

[P] CCC(CC)(CC)OC(=O)C[C@H](NC(=O)OCC1c2ccccc2-c2ccccc21)C(=O)O
[Q] CC(C)(C)OC(=O)C[C@H](NC(=O)OCC1c2ccccc2-c2ccccc21)C(=O)O [tBu, Fmoc-Asp(OtBu)-OH, reference compound]
Would you kindly point out which of P and Q has the smaller piperidides [%] figure? Could you answer with the label of the item you picked?
P

----------
test-details: Prolonged piperidine treatment of VKDGYI peptide resin (aspartimide formation, Asp-Gly motif)
condition-label: target peptide VKDGYI; 20 % piperidine in dimethylformamide over 18 hours; 110 Fmoc removal cycles
value-type: target [%] (%)

                                   compound  experimental_result
0  CCC(CC)(CC)OC(=O)C[C@H](NC(=O)OCC1c2ccccc2-c2ccccc21)C(=O)O                 64.4

[a] CCC(C)(CC)OC(=O)C[C@H](NC(=O)OCC1c2ccccc2-c2ccccc21)C(=O)O [Mpe, Fmoc-Asp(OMpe)-OH, reference compound]
[b] CCCC(CCC)(CCC)OC(=O)C[C@H](NC(=O)OCC1c2ccccc2-c2ccccc21)C(=O)O
[c] CC(C)(C)OC(=O)C[C@H](NC(=O)OCC1c2ccccc2-c2ccccc21)C(=O)O [tBu, Fmoc-Asp(OtBu)-OH, reference compound]
# desc sort on target [%] across 3 compounds Answer with the labels in sequence, matching the requested order.
b, a, c
(b: 80.6%, a: 42.3%, c: 8.0%)

----------
test-details: Prolonged treatment of VKDGYI peptide resin with 1 M Oxyma Pure and 20 % piperidine (aspartimide formation)
Format: physicochemical
condition-label: VKDGYI; Oxyma Pure +
value-type: Asu per 10' cycle

[I] CCCC(CCC)(CCC)OC(=O)C[C@H](NC(=O)OCC1c2ccccc2-c2ccccc21)C(=O)O [Php]
[II] CCC(C)(CC)OC(=O)C[C@H](NC(=O)OCC1c2ccccc2-c2ccccc21)C(=O)O [Mpe, Fmoc-Asp(OMpe)-OH, reference compound]
[III] CC(C)(C)OC(=O)C[C@H](NC(=O)OCC1c2ccccc2-c2ccccc21)C(=O)O [tBu, Fmoc-Asp(OtBu)-OH, reference compound]
Hi! Can you put these in order of Asu per 10' cycle, lowest number first? Answer with the labels in sequence, matching the requested order.
I, II, III
(I: 0.04, II: 0.16, III: 0.45)

----------
test-details: Prolonged piperidine treatment of VKDNYI peptide resin (aspartimide formation, Asp-Asn motif)
Format: physicochemical
condition-label: VKDNYI; piperidine
value-type: Asu per 10' cycle

In the examples that follow, each entry is paired with its recorded Asu per 10' cycle.
>>> print(df.to_string())
                                   molecule         value_type  experimental_result
0  CCC(CC)(CC)OC(=O)C[C@H](NC(=O)OCC1c2ccccc2-c2ccccc21)C(=O)O  Asu per 10' cycle                  0.2
1  CCC(C)(CC)OC(=O)C[C@H](NC(=O)OCC1c2ccccc2-c2ccccc21)C(=O)O [Mpe, Fmoc-Asp(OMpe)-OH, reference compound]  Asu per 10' cycle                  0.5
2  CCCCC(CCCC)(CCCC)OC(=O)C[C@H](NC(=O)OCC1c2ccccc2-c2ccccc21)C(=O)O  Asu per 10' cycle                 0.04

[a] CC(C)(C)OC(=O)C[C@H](NC(=O)OCC1c2ccccc2-c2ccccc21)C(=O)O [tBu, Fmoc-Asp(OtBu)-OH, reference compound]
[b] CCCC(CCC)(CCC)OC(=O)C[C@H](NC(=O)OCC1c2ccccc2-c2ccccc21)C(=O)O
Would you kindly point out which of a and b has the smaller Asu per 10' cycle figure? Could you answer with the label of the item you picked?
b
(b: 0.09, a: 1.6)

----------
test-details: Prolonged piperidine treatment at 60°C of VKDRYI peptide resin (aspartimide formation)
Type: physicochemical
condition-label: VKDRYI; piperidine at 60°C
value-type: Asu per 10' cycle

                                   molecule  experimental_result
0  CCCC(CCC)(CCC)OC(=O)C[C@H](NC(=O)OCC1c2ccccc2-c2ccccc21)C(=O)O                  0.1

[P] CCC(CC)(CC)OC(=O)C[C@H](NC(=O)OCC1c2ccccc2-c2ccccc21)C(=O)O
[Q] CC(C)(C)OC(=O)C[C@H](NC(=O)OCC1c2ccccc2-c2ccccc21)C(=O)O [tBu, Fmoc-Asp(OtBu)-OH, reference compound]
[R] CCC(C)(CC)OC(=O)C[C@H](NC(=O)OCC1c2ccccc2-c2ccccc21)C(=O)O [Mpe, Fmoc-Asp(OMpe)-OH, reference compound]
[S] CCCCC(CCCC)(CCCC)OC(=O)C[C@H](NC(=O)OCC1c2ccccc2-c2ccccc21)C(=O)O
Order each entry by recorded Asu per 10' cycle, climbing from the minimum. Answer with the labels in sequence, matching the requested order.
S, P, R, Q

----------
test-details: Prolonged piperidine treatment at 60°C of VKDRYI peptide resin (aspartimide formation)
Type: physicochemical
condition-label: VKDRYI; 20% piperidine in DMF at 60°C, 200 minutes
Method: Automated peptide synthesis, piperidine treatments of the resin samples and final TFA cleavages are performed as described in the protocols of example 4. In addition, to evaluate the advantage of the protecting groups used in this invention in heat accelerated SPPS we treat 50 mg peptide resin samples with a solution of 20% piperidine in DMF at 60°C over 200 minutes. […]
value-type: piperidides [%] (%)

>>> print(df.to_string())
                                   molecule  display_unit  experimental_result
0  CCCCC(CCCC)(CCCC)OC(=O)C[C@H](NC(=O)OCC1c2ccccc2-c2ccccc21)C(=O)O             %                  4.3

[P] CCCC(CCC)(CCC)OC(=O)C[C@H](NC(=O)OCC1c2ccccc2-c2ccccc21)C(=O)O
[Q] CCC(C)(CC)OC(=O)C[C@H](NC(=O)OCC1c2ccccc2-c2ccccc21)C(=O)O [Mpe, Fmoc-Asp(OMpe)-OH, reference compound]
[R] CC(C)(C)OC(=O)C[C@H](NC(=O)OCC1c2ccccc2-c2ccccc21)C(=O)O [tBu, Fmoc-Asp(OtBu)-OH, reference compound]
# desc sort on piperidides [%] across 3 molecules Answer with the labels in sequence, matching the requested order.
R, Q, P
